Test system: XIP peptide (Xip251-270)
assayNotes: small-molecule binders of XIP peptide, primary screen, biochemical, small-molecule microarray, fluorescence 635/667 nm, 0.5 µg/mL protein (AID 1183)
experimentalSetup: small-molecule microarray binding, fluorescence 635 nm; higher = more signal
observedProperty: composite z-score

[[record]]
structure = "O=C1[C@H]2[C@H]3[C@H](O)[C@H](O)CC(=NO[C@@H]4O[C@H](CO)[C@@H](O)[C@H](O)[C@H]4O)[C@H]3CC[C@H]2C(=O)N1c1ccc(F)cc1F"
systemundertest = "XIP peptide (Xip251-270)"
result = 0.502

[[record]]
structure = "CC(C)(C)N1C(=O)[C@H]2[C@@H]3C(=CC[C@H]2C1=O)C(=O)[C@H]1O[C@H]1[C@H]3O"
systemundertest = "XIP peptide (Xip251-270)"
result = 0.283

[[record]]
structure = "CC(C)=CCCC(C)=CCON=C1C[C@@H](O)[C@@H](O)[C@@H]2[C@@H]3C(=O)N([C@@H](C)c4ccccc4)C(=O)[C@@H]3CC[C@@H]12"
systemundertest = "XIP peptide (Xip251-270)"
result = 0.242

[[record]]
structure = "CCN1C(=O)[C@H]2[C@@H]3C(=CC[C@H]2C1=O)C(=O)[C@H]1O[C@H]1[C@H]3O"
systemundertest = "XIP peptide (Xip251-270)"
result = 0.568

[[record]]
structure = "CC(=O)OC[C@H]1O[C@H](C#CCCc2ccccc2)C=C[C@@H]1OC(C)=O"
systemundertest = "XIP peptide (Xip251-270)"
result = 0.758

[[record]]
structure = "CC(C)CON=C1C[C@@H](O)[C@@H](O)[C@@H]2[C@@H]3C(=O)N(C(C)(C)C)C(=O)[C@@H]3CC[C@@H]12"
systemundertest = "XIP peptide (Xip251-270)"
result = -0.295

[[record]]
structure = "C#CCCCON=C1C[C@@H](O)[C@@H](O)[C@@H]2[C@@H]3C(=O)N(C4CCCCC4)C(=O)[C@@H]3CC[C@@H]12"
systemundertest = "XIP peptide (Xip251-270)"
result = 0.0169

